# SUBJECT OF TEST: JNK1α1 (Homo sapiens, UniProt P45983)
# Construct: catalytic domain containing amino acids 1-364 and N-terminal hexahistidine tag; hexahistidine (His6) (N); made in house; host or cells: E. coli BL21 (DE3)
# Sequence (P45983 1-364): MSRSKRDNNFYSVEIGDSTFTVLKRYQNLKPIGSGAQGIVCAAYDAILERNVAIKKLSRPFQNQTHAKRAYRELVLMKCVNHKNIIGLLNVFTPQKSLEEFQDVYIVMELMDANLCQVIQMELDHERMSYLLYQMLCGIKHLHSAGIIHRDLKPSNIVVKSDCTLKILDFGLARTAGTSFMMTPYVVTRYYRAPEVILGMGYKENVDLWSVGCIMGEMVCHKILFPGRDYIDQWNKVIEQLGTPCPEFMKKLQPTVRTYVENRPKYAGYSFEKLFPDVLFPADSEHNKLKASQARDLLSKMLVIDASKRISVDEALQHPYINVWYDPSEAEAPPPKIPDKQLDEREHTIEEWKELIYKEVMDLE
# EXPERIMENT SUMMARY: Coupled spectrophotometric (PK/LDH) JNK1α1 assay: % inhibition and Ki determination
# Type: biochemical
# COND: @1 uM; read-out: % Inhibition JNK-1
REPORTED PROPERTY: inhibition at 1 µM (%)
Note: unit % is implicit; provide only the numeric part.

Example compounds with recorded inhibition at 1 µM:
{"columns": ["COMPOUND", "inhibition at 1 µM / %"],
 "data": [
  ["O=C(NCCc1ccccn1)c1cccc2cnc(N[C@H]3CC[C@H](O)CC3)nc12", 10],
  ["O=C1OCCN1CCOc1ccc2cnc(N[C@H]3CC[C@H](O)CC3)nc2c1", 71],
  ["CCn1ncnc1NC(=O)c1cccc2cnc(N[C@H]3CC[C@H](O)CC3)nc12", 19],
  ["CCOCC(C)Oc1ccc2cnc(N[C@H]3CC[C@H](O)CC3)nc2c1 (some centres unmarked)", 52],
  ["C[C@@H](NC(=O)c1cccc2cnc(N[C@H]3CC[C@H](O)CC3)nc12)[C@@H](O)c1ccccc1", 25]
]}

In: Give the reported value of inhibition at 1 µM for this record: `O=C(NCCc1cn2cccnc2n1)c1cccc2cnc(N[C@H]3CC[C@H](O)CC3)nc12`
Out: 8

In: Give the reported value of inhibition at 1 µM for this record: `CC(C)Nc1ncc2ccc(C(=O)NCCO)cc2n1`
Out: 15

In: Give the reported value of inhibition at 1 µM for this record: `CC(C)Nc1ncc2ccc(C(=O)N[C@H](CO)C(C)C)cc2n1`
Out: 11

* * *

# SUBJECT OF TEST: JNK1α1 (Homo sapiens)
# Construct: catalytic domain containing amino acids 1-364 and N-terminal hexahistidine tag; hexahistidine (His6) (N); made in house; host or cells: E. coli BL21 (DE3)
# EXPERIMENT SUMMARY: Coupled spectrophotometric (PK/LDH) JNK1α1 assay: % inhibition and Ki determination
# Assay type: biochemical
# COND: @1 uM; read-out: % Inhibition JNK-1
Label F if inhibition at 1 µM falls below 40%; label T in every other case.

{"columns": ["COMPOUND", "SUBJECT OF TEST", "CAT"],
 "data": [
  ["O=C(N[C@H]1CCN(C(=O)c2ccccc2)C1)c1cccc2cnc(N[C@H]3CC[C@H](O)CC3)nc12", "JNK1α1 (Homo sapiens)", "F"],
  ["CCN1CCC(Oc2ccc3cnc(N[C@H]4CC[C@H](O)CC4)nc3c2)C1 (stereo partly drawn)", "JNK1α1 (Homo sapiens)", "F"],
  ["Cc1cccc(CNC(=O)c2cccc3cnc(N[C@H]4CC[C@H](O)CC4)nc23)n1", "JNK1α1 (Homo sapiens)", "F"],
  ["CN1C(=O)OC[C@@H]1COc1ccc2cnc(N[C@H]3CC[C@H](O)CC3)nc2c1", "JNK1α1 (Homo sapiens)", "T"]
]}

In: Is the recorded value of inhibition at 1 µM equal to or greater than 40% for this compound? `O[C@H]1CC[C@H](Nc2ncc3ccc(OCC(F)(F)c4ccccn4)cc3n2)CC1`
Out: T

In: Is the recorded value of inhibition at 1 µM equal to or greater than 40% for this compound? O[C@H]1CC[C@H](Nc2ncc3ccc(OC4CCCN(Cc5ccccn5)C4)cc3n2)CC1 (stereo partly drawn)
Out: T

In: Is the recorded value of inhibition at 1 µM equal to or greater than 40% for this compound? `Cc1cc(NC(=O)c2cccc3cnc(N[C@H]4CC[C@H](O)CC4)nc23)n(-c2ccccn2)n1`
Out: F

* * *

# SUBJECT OF TEST: JNK1α1 (Homo sapiens)
REPORTED PROPERTY: pKi
Schema: pKi number; meaning minus log10 of the concentration expressed in molar units.

Example molecules with recorded pKi:
{"columns": ["MOLECULE", "pKi"],
 "data": [
  ["O=C(CN1Cc2ccccc2C1=O)Nc1cc2cc(-c3cn[nH]c3)ccc2cn1", 7.85],
  ["O=C(NCC1(O)CCC1)c1cccc2cnc(N[C@H]3CC[C@H](O)CC3)nc12", 6.89],
  ["CC(O)CNC(=O)c1ccc2cnc(N[C@H]3CC[C@H](O)CC3)nc2c1 (some centres unmarked)", 5.97]
]}

In: Give the reported value of pKi for this record: `O=C(NC1(c2ccccn2)CC1)c1cccc2cnc(N[C@H]3CC[C@H](O)CC3)nc12`
Out: 6.33

In: Give the reported value of pKi for this record: `CN(C)C(=O)CNC(=O)c1ccc2cnc(N[C@H]3CC[C@H](O)CC3)nc2c1`
Out: 5.64

* * *

# SUBJECT OF TEST: JNK1α1 (Homo sapiens, UniProt P45983)
# Construct: catalytic domain containing amino acids 1-364 and N-terminal hexahistidine tag; hexahistidine (His6) (N); made in house; host or cells: E. coli BL21 (DE3)
# EXPERIMENT SUMMARY: Coupled spectrophotometric (PK/LDH) JNK1α1 assay: % inhibition and Ki determination
# Type: biochemical
# COND: @1 uM; read-out: % Inhibition JNK-1
REPORTED PROPERTY: inhibition at 1 µM (%)
Note: unit % is implicit; provide only the numeric part.

Example compounds with recorded inhibition at 1 µM:
{"columns": ["COMPOUND", "REPORTED PROPERTY", "RESULT NUMBER"],
 "data": [
  ["O=C(NCCO)c1ccc2cnc(NC3CCCC3)nc2c1", "inhibition at 1 µM", 21],
  ["O=C1CN2C[C@@H](Oc3ccc4cnc(N[C@H]5CC[C@H](O)CC5)nc4c3)CC[C@H]2CN1", "inhibition at 1 µM", 62],
  ["CC(C)Nc1ncc2ccc(C(=O)NC3(CO)CCCC3)cc2n1", "inhibition at 1 µM", 15],
  ["Cc1cc(NC(=O)c2cccc3cnc(N[C@H]4CC[C@H](O)CC4)nc23)nc(C)n1", "inhibition at 1 µM", 18],
  ["CN1CCC(Oc2cccc3cnc(N[C@H]4CC[C@H](O)CC4)nc23)CC1", "inhibition at 1 µM", 17],
  ["CN(C)C(C)(C)COc1cccc2cnc(N[C@H]3CC[C@H](O)CC3)nc12", "inhibition at 1 µM", 19],
  ["CN1CCC[C@H]1COc1ccc2cnc(N[C@H]3CC[C@H](O)CC3)nc2c1", "inhibition at 1 µM", 24],
  ["O=C(NCc1nncn1C1CCCCC1)c1cccc2cnc(N[C@H]3CC[C@H](O)CC3)nc12", "inhibition at 1 µM", 13]
]}

We next turn to a different compound, shown below.
In: Give the reported value of inhibition at 1 µM for this record: CN1CCCC(COc2ccc3cnc(N[C@H]4CC[C@H](O)CC4)nc3c2)C1 (stereo partly drawn)
Out: 40

* * *

Record: pKi reported on JNK1α1 (Homo sapiens, UniProt P45983).
Schema: pKi number; meaning minus log10 of the concentration expressed in molar units.

{"columns": ["COMPOUND", "RESULT NUMBER"],
 "data": [
  ["O[C@H]1CC[C@H](Nc2ncc3cccc(O[C@H]4CCCN(Cc5ccccn5)C4)c3n2)CC1", 7.10],
  ["CS(=O)(=O)N[C@H]1CC[C@H](Nc2ncc3ccc(OC4CCOC4)cc3n2)CC1 (stereo partly shown)", 6.59],
  ["CC[C@H](C)[C@@H](CO)NC(=O)c1ccc2cnc(NC(C)C)nc2c1", 6.11]
]}

We next turn to a different compound, shown below.
In: Give the reported value of pKi for this record: CC(C)C(=O)N[C@H]1CC[C@H](Nc2ncc3cccc(OC4CCOC4)c3n2)CC1 (stereo partly shown)
Out: 6.22

* * *

Record: pKi reported on JNK1α1 (Homo sapiens, UniProt P45983).
Schema: pKi number; meaning minus log10 of the concentration expressed in molar units.

Example compounds with recorded pKi:
{"columns": ["COMPOUND", "pKi"],
 "data": [
  ["O[C@H]1CC[C@H](Nc2ncc3cccc(OCCc4cn[nH]c4)c3n2)CC1 [Example 245]", 6.62],
  ["C[C@@H](NC(=O)c1ccc2cnc(N[C@H]3CC[C@H](O)CC3)nc2c1)c1ccccc1 [Example 87]", 7.22],
  ["O[C@H]1CC[C@H](Nc2ncc3ccc(OCc4ccccn4)cc3n2)CC1 [Example 153]", 6.73],
  ["O=C(Nc1ccccn1)c1ccc2cnc(N[C@H]3CC[C@H](O)CC3)nc2c1 [Example 330]", 6.45],
  ["O[C@H]1CC[C@H](Nc2ncc3cccc(OC4CCOC4)c3n2)CC1 (some centres unmarked) [Example 171]", 6.32]
]}

In: Find pKi for O=C(N[C@@H](CO)c1ccccc1)c1ccc2cnc(N[C@H]3CC[C@H](O)CC3)nc2c1 [Example 337] on JNK1α1 (Homo sapiens, UniProt P45983) and write it down.
Out: 6.25

In: Find pKi for CC(C)(C)OC(=O)N1C[C@H](C(=O)Nc2cc3cc(-c4cn[nH]c4)ccc3cn2)[C@@H](c2ccccc2)C1 [Example 36] on JNK1α1 (Homo sapiens, UniProt P45983) and write it down.
Out: 8.10

The values you see were collected from patent US7998978B2.
